The origin of these recorded values is PubChem BioAssay.

# target.or.test.system: Albumin (Bos taurus)
# protocol.summary: bovine serum albumin binders on microarray, profiling panel, artefact control for SMM control protein annotation, biochemical, small-molecule microarray, Alexa647 label, 635/667 nm fluorescence (AID 1118);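 note: score merges 667 nm emission intensity and signal-to-noise per printed compound spot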
# reported.conditions: BSA-A647 binding, fluorescence 635 nm, higher = more signal
Returns Satisfied if the recorded composite z-score is greater than or equal to 0.1, and Not satisfied otherwise.

* CC(CCN1CCCc2nc(C)c(C)cc21)=NOC(C)CN1CCCCc2nc(C)c(C)cc21 (centres undefined) | Not satisfied
* COC(=O)CC=C[C@@H](C)[C@H](OCc1cccc(-c2ccccc2)c1)C1CCCCC1 | Not satisfied
* CO[C@H]1COC(=O)CC=C[C@@H](C)[C@H](OC)COC(=O)CCC[C@@H]1C | Not satisfied
* CCOC(=O)[C@H](CC(C)C)NC(=O)CCC1CC(OC(=O)NCc2ccc3c(c2)OCO3)CC2(CCCC(COC(=O)NCc3cccc(C(F)(F)F)c3)O2)O1 (some centres undefined) | Not satisfied
* COC(=O)[C@H]1[C@@H](O)[C@@]2(O)c3ccccc3O[C@@]2(c2ccccc2)[C@@H]1c1ccccc1 | Not satisfied
* CO[C@H]1COC(=O)CC=C[C@H](C)[C@@H](OC)COC(=O)[C@@H](C)NC(=O)CC=C[C@@H]1C | Not satisfied
* CCOC(=O)[C@H](Cc1ccccc1)NC(=O)CCC1CC(OC(=O)NCCc2ccc(F)cc2)CC2(CCCC(COC(=O)NCC3CCCCC3)O2)O1 (some centres undefined) | Satisfied
* COc1ccc(O[C@@H]2[C@H](O)CO[C@@H]2C=Cc2ccccc2)cc1 | Not satisfied
* O=C1[C@H]2[C@H]3[C@H](O)[C@H](O)CC(=NOCc4ccccc4)[C@H]3CC[C@H]2C(=O)N1Cc1ccc2c(c1)OCO2 | Satisfied
* CO[C@H]1COC(=O)[C@@H]2CCCN2C(=O)CC=C[C@@H](C)[C@H](OC)COC(=O)[C@@H](OCc2ccccc2)C=C[C@@H]1C | Not satisfied
* C#CCCCON=C1C[C@@H](O)[C@@H](O)[C@@H]2[C@@H]3C(=O)N(c4cccc(Oc5ccccc5)c4)C(=O)[C@@H]3CC[C@H]12 | Not satisfied
* COc1ccc(COC(=O)NN=C2C[C@@H](O)[C@@H](O)[C@@H]3[C@@H]4C(=O)N(C5CCCCC5)C(=O)[C@@H]4CC[C@H]23)cc1 | Satisfied
* COc1cccc([C@H]2Oc3ccc(OC)cc3C(=NO[C@@H](C)c3cn([C@H](CO)Cc4ccccc4)nn3)[C@@H]2O)c1 | Satisfied
* Cc1ccc(S(=O)(=O)N[C@H]2COC(=O)CC=C[C@H](C)[C@@H](NS(=O)(=O)c3ccc(C)cc3)COC(=O)CC=C[C@@H]2C)cc1 | Not satisfied
* O=C1[C@H]2[C@H]3[C@H](O)[C@H](O)CC(=NOCc4ccccc4)[C@@H]3CC[C@H]2C(=O)N1c1ccc(F)cc1F | Satisfied
* CCN1C(=O)[C@H]2[C@H]3[C@H](O)[C@H](O)CC(=NOCC(C)C)[C@@H]3CC[C@H]2C1=O | Satisfied
* CC(C)CON=C1C[C@@H](O)[C@@H](O)[C@@H]2[C@@H]3C(=O)N(c4ccc(F)cc4F)C(=O)[C@@H]3CC[C@H]12 | Satisfied
* CO[C@@H]1COC(=O)[C@@H](C)NC(=O)CC=C[C@@H](C)[C@H](NS(=O)(=O)c2ccc(C)cc2)COC(=O)[C@H](C)NC(=O)CC=C[C@H]1C | Not satisfied
* CC(C)CON=C1C[C@@H](O)[C@@H](O)[C@@H]2[C@@H]3C(=O)N(C[C@@H]4CCCO4)C(=O)[C@@H]3CC[C@@H]12 | Satisfied
* CC(CCN1CCCc2nc(C)c(C)cc21)=NO[C@@H](C)c1cc(-c2c(C)cc(C)cc2C)no1 | Satisfied
* CCCCC#C[C@@H]1C=C[C@H](Oc2ccc(C(=O)OC)cc2)[C@@H](COC(=O)OCC)O1 | Satisfied
* CCOC(=O)[C@H](CC(C)C)NC(=O)CCC1CC(OC(=O)NCc2ccc3c(c2)OCO3)CC2(CCCC(COC(=O)NCC(c3ccccc3)c3ccccc3)O2)O1 (some centres undefined) | Satisfied
* CC(C)CON=C1[C@H]2CCn3c(=O)n(Cc4cc5c(cc4Cl)OCO5)c(=O)n3[C@H]2[C@H](O)[C@@H]2O[C@H]12 | Not satisfied

----------
# protocol.summary: small-molecule microarray binders of probe aXIP, primary screen, biochemical, NeuroSMM set, 635/667 nm fluorescence (AID 1119);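 note: probe is the protein aXip251-270 applied at 1 µg/mL to compound-printed slides; binding of probe to printed compounds measured as 667 nm fluorescence plus signal to noise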
# reported.conditions: higher = more signal, called active from +8 up or from −8 down
Calls of active or inactive are those of the source.
Items are presented alongside their recorded composite Z-score.
quantity.name: composite Z-score

• O=C(NN=C1C[C@@H](O)[C@@H](O)[C@@H]2[C@@H]3C(=O)N(C[C@@H]4CCCO4)C(=O)[C@@H]3CC[C@@H]12)OCc1ccccc1 = 0.008 (inactive)
• C=Cc1ccc([C@H]2N[C@H](C(=O)O)CC[C@@H]2C)cc1 = -0.602 (inactive)
• CCOC(=O)[C@H](Cc1ccccc1)NC(=O)CCC1CC(OC(=O)NCCc2ccc(F)cc2)CC2(CCCC(COC(=O)NCc3ccccc3)O2)O1 (stereo partly specified) = 0.42 (inactive)
• COC(=O)[C@H](C)NC(=O)CCC1CC(OC(=O)NCCc2ccc(F)cc2)CC2(CCCC(COC(=O)NCCC(C)C)O2)O1 (stereo partly specified) = 0.443 (inactive)
• COC(=O)[C@H](C)NC(=O)CCC1CC(OC(=O)NCc2ccc3c(c2)OCO3)CC2(CCCC(COC(=O)NCC3CCCCC3)O2)O1 (stereo partly specified) = -0.0882 (inactive)
• COC(=O)CC=C[C@@H](C)[C@@H](C=NO[C@H](C)c1cn([C@H](CO)Cc2ccccc2)nn1)NS(=O)(=O)c1ccc(C)cc1 = 0.863 (inactive)
• CCOC(=O)[C@H](CC(C)C)NC(=O)CCC1CC(OC(=O)NCc2cccc3ccccc23)CC2(CCCC(COC(=O)NCc3cccc(C(F)(F)F)c3)O2)O1 (stereo partly specified) = 0.041 (inactive)
• CCCCC#C[C@@H]1C=C[C@H](OC(C)=O)[C@@H](COC(C)=O)O1 = 0.299 (inactive)
• O=C1[C@H]2[C@H]3[C@H](O)[C@H](O)CC(=NOC[C@@H](O)COCc4ccco4)[C@H]3CC[C@H]2C(=O)N1c1ccc(F)cc1F = -0.214 (inactive)
• CCOC(=O)[C@H](CC(C)C)NC(=O)CCC1CC(OC(=O)NCCc2ccc(F)cc2)CC2(CCCC(COC(=O)NCCOc3ccccc3)O2)O1 (stereo partly specified) = 0.0308 (inactive)
• CCOC(=O)NN=C1C[C@@H](O)[C@@H](O)[C@@H]2[C@@H]3C(=O)N(c4cccc(Oc5ccccc5)c4)C(=O)[C@@H]3CC[C@@H]12 = -0.147 (inactive)

----------
# target.or.test.system: Follistatin-related protein 3 (Homo sapiens)
# protocol.summary: FSTL3 binders on small-molecule microarrays, primary screen, biochemical, small-molecule microarray, 635 nm fluorescence (AID 1105);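 note: score merges emission near 667 nm and signal to noise per printed spot across three slides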
# reported.conditions: FSTL3 binding, higher = more signal
Returns Yes if the recorded composite z-score is greater than or equal to 0.7, and No otherwise.

* O=C1CCCC=C1C(CCc1ccccc1)OC(=O)c1ccc(Br)cc1 (configuration not stated) | No
* CCOC(=O)NN=C1C[C@@H](O)[C@@H](O)[C@@H]2[C@@H]3C(=O)N(c4ccc(F)cc4F)C(=O)[C@@H]3CC[C@@H]12 | No
* COC(=O)CC=C[C@@H](C)[C@@H]1C=C[C@H](O)[C@@H](CO)O1 | No
* CO[C@@H]1C=CCC(=O)N2CCC[C@H]2C(=O)OC[C@@H](C)C(=O)OC[C@H]1C | Yes
* CO[C@H]1COC(=O)CC=C[C@H](C)[C@@H](OC)COC(=O)[C@@H](C)COC(=O)CC=C[C@@H]1C | Yes
* C=CC[C@@H]1C=C[C@H](ON=C(C)CCC(=O)OC[C@H]2O[C@H](c3ccccc3)C=C[C@@H]2Oc2ccc(OC)cc2)[C@@H](CO)O1 | No
* CCc1cc2c(nc1CC)CCN(CCC(C)=NO[C@@H](C)c1cn([C@H](CO)Cc3ccccc3)nn1)C2 | No
* CO[C@H]1COC(=O)[C@@H](C)COC(=O)[C@H](COCc2ccccc2)NC(=O)CC=C[C@H]1C | No
* CCN1C(=O)[C@H]2[C@H]3[C@H](O)[C@H](O)CC(=O)[C@H]3CC[C@H]2C1=O | No
* CCOC(=O)NN=C1C[C@@H](O)[C@@H](O)[C@@H]2[C@@H]3C(=O)N([C@@H](C)c4ccccc4)C(=O)[C@@H]3CC[C@H]12 | No
* CC(CCN1CCCc2nc(C)c(C)cc21)=NOC(C)CN1CCCCc2nc(C)c(C)cc21 (configuration not stated) | Yes
* CO[C@H]1COC(=O)CC=C[C@H](C)[C@@H](OC)COC(=O)[C@H](C)COC(=O)CC=C[C@@H]1C | Yes
* COc1ccc(O[C@H]2C=C[C@@H](c3ccccc3)O[C@@H]2COC(=O)CCC(C)=NO[C@@H]2O[C@H](COC(C)=O)[C@@H](OC(C)=O)[C@H](OC(C)=O)[C@H]2OC(C)=O)cc1 | Yes
* COc1cc(O)c(C(=O)C=Cc2ccc3c(c2)OCO3)c(OC)c1 | No
* C[C@@H]1NC(=O)[C@@H](C)COC(=O)[C@H](C)NC(=O)[C@@H](C)COC1=O | Yes
* COC(=O)CC=C[C@@H](C)[C@@H](C=NO[C@@H]1O[C@H](COC(C)=O)[C@@H](OC(C)=O)[C@H](OC(C)=O)[C@H]1OC(C)=O)NS(=O)(=O)c1ccc(C)cc1 | No
* CC(C)CON=C1C[C@@H](O)[C@@H](O)[C@@H]2[C@@H]3C(=O)N(Cc4ccc5c(c4)OCO5)C(=O)[C@@H]3CC[C@H]12 | No
* C[C@H]1COC(=O)[C@@H]2CCCN2C(=O)[C@@H](C)COC(=O)[C@H](Cc2ccccc2)NC1=O | No
* CCOC(=O)NN=C1C[C@@H](O)[C@@H](O)[C@@H]2[C@@H]3C(=O)N(c4cccc(Oc5ccccc5)c4)C(=O)[C@@H]3CC[C@H]12 | No
* CO[C@@H]1C=CCC(=O)N[C@@H](C)C(=O)OC[C@@H](OC)[C@H](C)CCCC(=O)OC[C@H]1C | Yes
* CCOC(=O)NN=C1C[C@@H](O)[C@@H](O)[C@@H]2[C@@H]3C(=O)N(Cc4ccccc4)C(=O)[C@@H]3CC[C@H]12 | No
* CCN1C(=O)[C@H]2[C@H]3[C@H](O)[C@H](O)CC(=NOCC(C)C)[C@@H]3CC[C@H]2C1=O | Yes
* CC(C)CON=C1C[C@@H](O)[C@@H](O)[C@@H]2[C@@H]3C(=O)N(C4CCCCC4)C(=O)[C@@H]3CC[C@@H]12 | No
* C[C@H]1CC[C@H]2C(=O)OC(CO)CN2[C@@H]1c1ccc(Br)cc1 (some centres not stated) | No
* COC(=O)[C@@H]1CC[C@H](C)[C@@H](c2ccc(C)cc2)N1C(=O)c1ccc(C=NOC[C@@H](C)[C@H](OCc2ccccc2)C(C)C)cc1 | Yes
* O=C1[C@H]2[C@H]3[C@H](O)[C@H](O)CC(=NOC[C@@H](O)COCc4ccco4)[C@H]3CC[C@H]2C(=O)N1c1ccc(F)cc1F | No
* C#CCCCON=C1C[C@@H](O)[C@@H](O)[C@@H]2[C@@H]3C(=O)N(C(C)(C)C)C(=O)[C@@H]3CC[C@@H]12 | No
